Listed molecules paired with reported IC50
# assayed system: ALK (baculovirus expressed human ALK kinase domain F1098-K1410) (Homo sapiens)
# Construct: human ALK kinase domain F1098-K1410; made in house
# Sequence (Q9UM73 1098-1410): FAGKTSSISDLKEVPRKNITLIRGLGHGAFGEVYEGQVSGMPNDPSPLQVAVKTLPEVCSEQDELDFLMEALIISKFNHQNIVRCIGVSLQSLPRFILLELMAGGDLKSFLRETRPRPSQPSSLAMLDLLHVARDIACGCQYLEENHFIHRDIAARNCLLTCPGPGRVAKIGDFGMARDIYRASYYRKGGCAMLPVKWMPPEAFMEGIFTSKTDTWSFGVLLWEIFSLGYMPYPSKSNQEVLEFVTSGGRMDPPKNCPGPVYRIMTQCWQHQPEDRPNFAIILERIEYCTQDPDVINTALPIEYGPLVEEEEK
# test summary: biochemical
# assay setup: 1 μM ATP, 4 μM poly-AEKY, 12 nM ALK, 2 hours at ambient temperature; read-out: ALK IC50

Below, each entry is followed by its recorded IC50 result.
- O=C(COc1ccc(OC(F)(F)F)cc1)NCc1nc(C(=O)O)cs1 [Entry 302]: > 2 µM
- CCc1ccc(NC(=O)NCc2nc(C(=O)NCCc3ccccc3F)cs2)cc1 [Entry 101]: 0.05 to 0.5 µM
- CC(CNC(=O)c1csc(CNC(=O)COc2ccc(OC(F)(F)F)cc2)n1)c1ccccc1 (stereo not drawn) [Entry 7]: < 0.05 µM
- COc1ccc(OC)c(CCNC(=O)c2csc(CNC(=O)COc3ccc(OC(F)(F)F)cc3)n2)c1 [Entry 137]: 0.05 to 0.5 µM
- O=C(COc1ccc(OC(F)(F)F)cc1)NCc1nc(C(=O)NCCc2cccs2)cs1 [Entry 19]: < 0.05 µM

Reported IC50, molecule CC(C)c1ccc(NC(=O)NCc2nc(C(=O)NCCc3cccc(Cl)c3)cs2)cc1 [Entry 25] : ____
< 0.05 µM

Now the molecule O=C(COc1ccc(OC(F)(F)F)cc1)NCc1nc(C(=O)N2CC[C@H]3CCCC[C@@H]3C2)cs1 [Entry 266]
0.5 to 2 µM

Now the molecule CCCCNC(=O)c1csc(CNC(=O)COc2ccc(OC(F)(F)F)cc2)n1 [Entry 177]
0.05 to 0.5 µM

Now the molecule CC1CCCCC1NC(=O)c1csc(CNC(=O)COc2ccc(OC(F)(F)F)cc2)n1 (stereo not drawn) [Entry 87]
0.05 to 0.5 µM

Now the molecule CSc1ccccc1CNC(=O)c1coc(CNC(=O)COc2ccc(OC(F)(F)F)cc2)n1 [Entry 186]
0.05 to 0.5 µM

Now the molecule COc1ccccc1CNC(=O)c1csc(CNC(=O)COc2ccc(C(C)(C)C)cc2)n1 [Entry 22]
< 0.05 µM

Now the molecule O=C(COc1ccc(OC(F)(F)F)cc1)NCc1nc(C(=O)NC2CCN(Cc3ccccc3)CC2)cs1 [Entry 84]
0.05 to 0.5 µM

Now the molecule O=C(COc1ccc(OC(F)(F)F)cc1)NCc1nc(C(=O)N2CCN(c3ccccn3)CC2)cs1 [Entry 279]
0.5 to 2 µM

Now the molecule COc1ccccc1CNC(=O)c1csc(CNC(=O)Nc2ccc(C(C)C)cc2)n1 [Entry 29]
0.05 to 0.5 µM

Now the molecule COc1ccc(CCNC(=O)c2csc(CNC(=O)COc3ccc(OC(F)(F)F)cc3)n2)cc1 [Entry 9]
< 0.05 µM

Now the molecule O=C(COc1ccc(OC(F)(F)F)cc1)NCc1nc(C(=O)NCc2c(F)cccc2F)cs1 [Entry 115]
0.05 to 0.5 µM

Now the molecule CC(C)CCCCCCNC(=O)c1csc(CNC(=O)COc2ccc(OC(F)(F)F)cc2)n1 [Entry 189]
0.05 to 0.5 µM

Now the molecule C[C@H](NC(=O)c1csc(CNC(=O)COc2ccc(OC(F)(F)F)cc2)n1)C(C)(C)C [Entry 102]
0.05 to 0.5 µM
